Molecular target: T1, HaloTag-ATRX ADD domain (163-292)
T1 chain: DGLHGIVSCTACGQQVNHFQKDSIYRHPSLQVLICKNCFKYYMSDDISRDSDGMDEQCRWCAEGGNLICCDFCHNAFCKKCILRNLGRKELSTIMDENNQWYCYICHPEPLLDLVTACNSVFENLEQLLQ
Test: peptide microarray binding signal (635 nm), min-max normalized on array (fraction of array maximum); higher = stronger binding
Conditions: peptide region: Unmod H2A variant; binder concentration: 50 nM
measured.property: peptide microarray binding signal

binder | quantitative.readout
RNDEELNKLLGKV [Unmod H2A variant R N D E E L N K L L G K V] | 0.0192
RAKSKSRSSRAGL [Unmod H2A variant R A K S K S R S S R A G L] | 0.0102
QGGKARAKAKSRS [Unmod H2A variant Q G G K A R A K A K S R S] | 0.0073
